# ASSAY_REMARKS: Example 1: radioactivity and metabolites in breast tissue after percutaneous [3H]-labeled drug
# DETAILS: Day 7 after percutaneous trans-[3H]-4-hydroxy tamoxifen
For each record, write down the corresponding % Metabolites in Breast Tissue.
Answers are plain numbers, in %.

Here is how some compounds turned out for % Metabolites in Breast Tissue.
CC/C(=C(\c1ccc(O)cc1)c1ccc(OCCN(C)C)cc1)c1ccccc1 [4-hydroxy tamoxifen] ... 65
CC(C)(c1ccc(O)cc1)c1ccc(O)cc1 ... 8

Now, please, on to the next compound.
Query string: Read off the recorded % Metabolites in Breast Tissue for CCC(=C(c1ccc(O)cc1)c1ccc(OCCNC)cc1)c1ccccc1 [N-Desmethyl-4-Hydroxy Tamoxifen]
Result string: 16

---

Provide the reported % Metabolites in Breast Tissue of each item.
# ASSAY_REMARKS: Example 1: radioactivity and metabolites in breast tissue after percutaneous [3H]-labeled drug
# DETAILS: Day 4 after percutaneous trans-[3H]-4-hydroxy tamoxifen

CCC(=C(c1ccc(O)cc1)c1ccc(OCCNC)cc1)c1ccccc1 [N-Desmethyl-4-Hydroxy Tamoxifen] ... 20%

State recorded % Metabolites in Breast Tissue for all listed molecules.
1. CC/C(=C(\c1ccccc1)c1ccc(OCCNC)cc1)c1ccccc1 [N-Desmethyl tamoxifen]
2. CC(C)(c1ccc(O)cc1)c1ccc(O)cc1 [Bisphenol]
3. CC/C(=C(\c1ccc(O)cc1)c1ccc(OCCN(C)C)cc1)c1ccccc1 [4-hydroxy tamoxifen]

Result string:
<1%
8%
70%

---

# ASSAY_REMARKS: Example 1: radioactivity and metabolites in breast tissue after percutaneous [3H]-labeled drug
# DETAILS: 36 hr after percutaneous trans-[3H]-4-hydroxy tamoxifen
METRIC: % Metabolites in Breast Tissue (%)
Numbers only, in %.

# return % Metabolites in Breast Tissue for each item in the list
1. CC/C(=C(\c1ccc(O)cc1)c1ccc(OCCN(C)C)cc1)c1ccccc1 [4-hydroxy tamoxifen]
2. CCC(=C(c1ccc(O)cc1)c1ccc(OCCNC)cc1)c1ccccc1 [N-Desmethyl-4-Hydroxy Tamoxifen]
3. CC(C)(c1ccc(O)cc1)c1ccc(O)cc1

Result string:
78
14
3

These measurements were taken from patent US7485623B2.
